- systemName: T1, biotinylated Human Activin A (human, UniProt P03970 309-424 (pig entry), biotinylated (EZ-Link Sulfo-NHS-Biotinylation Kit))
- T1 sequence: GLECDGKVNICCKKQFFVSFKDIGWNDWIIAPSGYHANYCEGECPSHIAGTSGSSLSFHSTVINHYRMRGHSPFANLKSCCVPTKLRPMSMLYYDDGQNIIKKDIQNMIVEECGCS
- assayProcedure: SPR (Biacore 8K), antigen captured, Fab analyte
This section presents binders with their documented kon values.
Use M⁻¹ s⁻¹ as the unit, but write only the number.

// solved cases for kon follow
{"binder": "Fab of anti-Activin A antibody Clone H (Fab, V domains shown, Fab format; only VH and VL are tied to the clone; also called Clone H Fab) VH: QVQLVQSGAEVKKPGASVKVSCKASGYTFTGYHIHWVRQAPGQGLEWMGHISAYSGTTNYAQKLQGRVTMTTDTSTSTAYMELRSLRSDDTAVYYCARARDIAAAGLGAFDYWGQGTLVTVSS VL: EIVLTQSPGTLSLSPGERATLSCRASQSVRSSYLAWYQQKPGQAPRLLIYGASSRATGIPDRFSGSGSGTDFTLTISRLEPEDFAVYYCQQYSNYPRTFGGGTKVEIK", "observable": "kon", "scaleUnit": "M⁻¹ s⁻¹", "measuredNumber": 386000}
{"binder": "Fab of anti-Activin A antibody Clone I (Fab, V domains shown, Fab format; only VH and VL are tied to the clone; also called Clone I Fab) VH: QVQLVQSGAEVKKPGSSVKVSCKASGGTFSNYAISWVRQAPGQGLEWMGYIIPFFGTANYAQKFQGRVTITADESTSTAYMELSSLRSEDTAVYYCARGGSGYSTSWGSSLYWGQGTLVTVSS VL: EIVLTQSPGTLSLSPGERATLSCRASQSVSSSYLAWYQQKPGQAPRLLIYGASYRATGIPDRFSGSGSGTDFTLTISRLEPEDFAVYYCLQSGVFPYTFGGGTKVEIK", "observable": "kon", "scaleUnit": "M⁻¹ s⁻¹", "measuredNumber": "1.2e+06"}

Please examine the following record next.
Qu. GET /values?readout=kon&item= Fab of anti-Activin A antibody Clone E (Fab, V domains shown, Fab format; only VH and VL are tied to the clone; also called Clone E Fab) VH: QVQLVQSGAEVKKPGASVKVSCKASGYTFHGYNMHWVRQAPGQGLEWMGSINPYSGYTIYAQKFQGRVTMTRDTSISTAYMELSRLRSDDTAVYYCARARDIAAAGLGAFDYWGQGTLVTVSS VL: EIVLTQSPGTLSLSPGERATLSCRASQSVRSSYLAWYQQKPGQAPRLLIYGASSRATGIPDRFSGSGSGTDFTLTISRLEPEDFAVYYCQQYVSYPRTFGGGTKVEIK
Ans. 2.23e+06
